Test system: MDR1 (P-glycoprotein)
Assay: in vitro
Type: in vitro ADME, canine
Settings: dog, MDCK-MDR1, pH 7.4, MDR1 MDCK; read-out: Recovery B>A n=2
parameter: recovery at 1 h, 10 µM (%)
One number for each entry, in %.

Would you please look over these solved cases?
INSERT INTO measurements (compound, result_unit, value_measured) VALUES
  ('Cn1c(C(=O)N[C@@H](C(=O)O)c2ccccc2)cc2cc(F)ccc21', '%', 83),
  ('CC(C)NCC(O)COc1cccc2ccccc12 (stereo not drawn) [Propranolol, reference compound]', '%', 78),
  ('Oc1ccc(-c2csc3nc(-c4ccccc4)nn23)c(O)c1', '%', 48),
  ('CC[C@]1(O)C[C@@H]2CN(CCc3c([nH]c4ccccc34)[C@@](C(=O)OC)(c3cc4c(cc3OC)N(C)[C@H]3[C@@](O)(C(=O)OC)[C@H](OC(C)=O)[C@]5(CC)C=CCN6CC[C@]43[C@@H]65)C2)C1 [Vinblastine, reference compound]', '%', 64),
  ('CC(CSc1ccc(Cl)cc1)C(=O)O (stereo not drawn)', '%', 67);

Then there is this compound:
// lookup recovery at 1 h, 10 µM for Cc1cc2c(c(C)c1Cl)N(CC(=O)O)C(=O)CO2
106

----------
Assay: Rat brain penetration study
Type: in vivo, male Han Wistar rats
Conditions: male, Han Wistar, whole blood, intravenous, 5 mg free base/kg, 1b 5 mg/kg i.v., 5 min, single rats, read-out: In blood, prodrug 1b
parameter: concentration at 5 min

// lookup concentration at 5 min for CCOC(=O)CN1C(=O)COc2cc(C)c(Cl)c(C)c21
≤ 3 ng/mL

----------
Test: in vitro
Format: in vitro ADME, canine
Conditions: dog, MDCK, pH 7.4, wild type MDCK; read-out: Papp A>B Mean
For each record, write down the corresponding Papp A→B at 1 h, 10 µM.
Answers are plain numbers, in ×10⁻⁶ cm/s.

INSERT INTO results (compound, value_measured) VALUES
  ('CC(CSc1ccc(Cl)cc1)C(=O)O (stereo not drawn)', 37);

Then there is this compound:
// lookup Papp A→B at 1 h, 10 µM for CC(C)NCC(O)COc1cccc2ccccc12 (stereo not drawn) [Propranolol, reference compound]
54.5

----------
Test system: K562 cells
Test: Competition assay for uptake of riboflavin
Assay type: cell-based, Human
Conditions: 1 µM riboflavin plus 100 µM compound, time 2
For each record, write down the corresponding Mean FL2-A, compound + riboflavin (RF).
Numbers only.

INSERT INTO results (compound_smiles, value_measured) VALUES
  ('Cc1cc2c(c(C)c1Cl)N(CC(=O)OC(C)C)C(=O)CO2', 60.924);

Field: Mean FL2-A, compound + riboflavin (RF). Fill in for each record below.
1. CCOC(=O)CN1C(=O)COc2cc(C)c(Cl)c(C)c21
2. COC(=O)CN1C(=O)COc2cc(C)c(Cl)c(C)c21
3. Cc1cc2c(c(C)c1Cl)N(CC(=O)O)C(=O)CO2

1. 59.9856
2. 77.0559
3. 68.195

----------
Biological target: Homo sapiens KMO (HsKMO) (Homo sapiens)
Sequence (O15229 whole entry): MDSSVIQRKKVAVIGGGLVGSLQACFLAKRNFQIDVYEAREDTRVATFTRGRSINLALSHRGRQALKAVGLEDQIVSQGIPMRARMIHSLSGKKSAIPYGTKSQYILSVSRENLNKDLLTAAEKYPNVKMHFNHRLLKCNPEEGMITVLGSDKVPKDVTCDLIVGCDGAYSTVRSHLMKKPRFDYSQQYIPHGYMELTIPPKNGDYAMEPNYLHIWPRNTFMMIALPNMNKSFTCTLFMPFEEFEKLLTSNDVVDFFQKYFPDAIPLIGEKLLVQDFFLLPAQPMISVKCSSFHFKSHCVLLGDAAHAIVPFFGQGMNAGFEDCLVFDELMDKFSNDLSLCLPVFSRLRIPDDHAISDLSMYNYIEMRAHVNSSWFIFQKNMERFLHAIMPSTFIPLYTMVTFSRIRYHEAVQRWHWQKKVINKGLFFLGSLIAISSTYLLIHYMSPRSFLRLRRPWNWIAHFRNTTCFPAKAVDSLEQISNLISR
parameter: IC50

Would you please look over these solved cases?
INSERT INTO results (compound, value_measured) VALUES
  ('CNC(=O)CN1C(=O)COc2cc(C)c(Cl)c(C)c21', '> 300 µM'),
  ('COC(=O)CN1C(=O)COc2cc(C)c(Cl)c(C)c21', '~500 µM'),
  ('Cc1cc2c(c(C)c1Cl)N(Cc1nn[nH]n1)C(=O)CO2', '1.28 µM'),
  ('O=C(O)[C@@H]1C[C@H]1C(=O)c1ccc(Cl)c(Cl)c1 [UPF648, reference compound]', '0.06 µM');

// lookup IC50 for Cn1c(C(=O)N[C@@H](C(=O)O)c2ccccc2)cc2cc(F)ccc21
55.3 µM

Cited source: paper PMC6656724
